Would you kindly list composite z-score for each of these molecules?
# Test system: Inhibin beta A chain (activin A)
# Method summary: small molecules binding activin A – biochemical, small-molecule microarray, 635 nm fluorescence scan, primary screen (AID 1107);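 note: mouse activin A protein probed at 4.33 µg/mL on printed slides; score merges bound-protein fluorescence near 667 nm with spot signal-to-noise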
# Conditions: INHBA, higher = more signal
Number, no unit, nothing else.

Ask: Please tell me: composite z-score of Cc1ccc(N2C(=O)c3ccccc3[C@@H](C(=O)NCCCN(C)C)[C@@H]2c2ccc(CO)cc2)nc1 , system Inhibin beta A chain (activin A)?
Reply: -0.153

Ask: For the record COCCOC(=O)N1C(=O)[C@@]2(c3cc(C#CCCO)ccc31)[C@H](C(=O)Nc1nc3ccccc3s1)[C@H]1C(=O)O[C@H](c3ccccc3)[C@H](c3ccccc3)N1[C@@H]2c1ccc(O)cc1 , what value of composite z-score is listed for Inhibin beta A chain (activin A)?
Reply: 0.211

Ask: Given the entry CO[C@H]1O[C@H](CO)[C@@H](OC(=O)Nc2ccc(Br)cc2)[C@@H]2OC(=O)[C@@H](Cc3ccccc3)C/C=C/C[C@H](Cc3ccccc3)C(=O)O[C@@H]12 , what composite z-score was observed with Inhibin beta A chain (activin A)?
Reply: 0.517

* * *

# Tested system: Neurogenic locus notch homolog protein 2 (Homo sapiens) (UniProt Q04721)
# Sequence (Q04721 whole entry, looked up): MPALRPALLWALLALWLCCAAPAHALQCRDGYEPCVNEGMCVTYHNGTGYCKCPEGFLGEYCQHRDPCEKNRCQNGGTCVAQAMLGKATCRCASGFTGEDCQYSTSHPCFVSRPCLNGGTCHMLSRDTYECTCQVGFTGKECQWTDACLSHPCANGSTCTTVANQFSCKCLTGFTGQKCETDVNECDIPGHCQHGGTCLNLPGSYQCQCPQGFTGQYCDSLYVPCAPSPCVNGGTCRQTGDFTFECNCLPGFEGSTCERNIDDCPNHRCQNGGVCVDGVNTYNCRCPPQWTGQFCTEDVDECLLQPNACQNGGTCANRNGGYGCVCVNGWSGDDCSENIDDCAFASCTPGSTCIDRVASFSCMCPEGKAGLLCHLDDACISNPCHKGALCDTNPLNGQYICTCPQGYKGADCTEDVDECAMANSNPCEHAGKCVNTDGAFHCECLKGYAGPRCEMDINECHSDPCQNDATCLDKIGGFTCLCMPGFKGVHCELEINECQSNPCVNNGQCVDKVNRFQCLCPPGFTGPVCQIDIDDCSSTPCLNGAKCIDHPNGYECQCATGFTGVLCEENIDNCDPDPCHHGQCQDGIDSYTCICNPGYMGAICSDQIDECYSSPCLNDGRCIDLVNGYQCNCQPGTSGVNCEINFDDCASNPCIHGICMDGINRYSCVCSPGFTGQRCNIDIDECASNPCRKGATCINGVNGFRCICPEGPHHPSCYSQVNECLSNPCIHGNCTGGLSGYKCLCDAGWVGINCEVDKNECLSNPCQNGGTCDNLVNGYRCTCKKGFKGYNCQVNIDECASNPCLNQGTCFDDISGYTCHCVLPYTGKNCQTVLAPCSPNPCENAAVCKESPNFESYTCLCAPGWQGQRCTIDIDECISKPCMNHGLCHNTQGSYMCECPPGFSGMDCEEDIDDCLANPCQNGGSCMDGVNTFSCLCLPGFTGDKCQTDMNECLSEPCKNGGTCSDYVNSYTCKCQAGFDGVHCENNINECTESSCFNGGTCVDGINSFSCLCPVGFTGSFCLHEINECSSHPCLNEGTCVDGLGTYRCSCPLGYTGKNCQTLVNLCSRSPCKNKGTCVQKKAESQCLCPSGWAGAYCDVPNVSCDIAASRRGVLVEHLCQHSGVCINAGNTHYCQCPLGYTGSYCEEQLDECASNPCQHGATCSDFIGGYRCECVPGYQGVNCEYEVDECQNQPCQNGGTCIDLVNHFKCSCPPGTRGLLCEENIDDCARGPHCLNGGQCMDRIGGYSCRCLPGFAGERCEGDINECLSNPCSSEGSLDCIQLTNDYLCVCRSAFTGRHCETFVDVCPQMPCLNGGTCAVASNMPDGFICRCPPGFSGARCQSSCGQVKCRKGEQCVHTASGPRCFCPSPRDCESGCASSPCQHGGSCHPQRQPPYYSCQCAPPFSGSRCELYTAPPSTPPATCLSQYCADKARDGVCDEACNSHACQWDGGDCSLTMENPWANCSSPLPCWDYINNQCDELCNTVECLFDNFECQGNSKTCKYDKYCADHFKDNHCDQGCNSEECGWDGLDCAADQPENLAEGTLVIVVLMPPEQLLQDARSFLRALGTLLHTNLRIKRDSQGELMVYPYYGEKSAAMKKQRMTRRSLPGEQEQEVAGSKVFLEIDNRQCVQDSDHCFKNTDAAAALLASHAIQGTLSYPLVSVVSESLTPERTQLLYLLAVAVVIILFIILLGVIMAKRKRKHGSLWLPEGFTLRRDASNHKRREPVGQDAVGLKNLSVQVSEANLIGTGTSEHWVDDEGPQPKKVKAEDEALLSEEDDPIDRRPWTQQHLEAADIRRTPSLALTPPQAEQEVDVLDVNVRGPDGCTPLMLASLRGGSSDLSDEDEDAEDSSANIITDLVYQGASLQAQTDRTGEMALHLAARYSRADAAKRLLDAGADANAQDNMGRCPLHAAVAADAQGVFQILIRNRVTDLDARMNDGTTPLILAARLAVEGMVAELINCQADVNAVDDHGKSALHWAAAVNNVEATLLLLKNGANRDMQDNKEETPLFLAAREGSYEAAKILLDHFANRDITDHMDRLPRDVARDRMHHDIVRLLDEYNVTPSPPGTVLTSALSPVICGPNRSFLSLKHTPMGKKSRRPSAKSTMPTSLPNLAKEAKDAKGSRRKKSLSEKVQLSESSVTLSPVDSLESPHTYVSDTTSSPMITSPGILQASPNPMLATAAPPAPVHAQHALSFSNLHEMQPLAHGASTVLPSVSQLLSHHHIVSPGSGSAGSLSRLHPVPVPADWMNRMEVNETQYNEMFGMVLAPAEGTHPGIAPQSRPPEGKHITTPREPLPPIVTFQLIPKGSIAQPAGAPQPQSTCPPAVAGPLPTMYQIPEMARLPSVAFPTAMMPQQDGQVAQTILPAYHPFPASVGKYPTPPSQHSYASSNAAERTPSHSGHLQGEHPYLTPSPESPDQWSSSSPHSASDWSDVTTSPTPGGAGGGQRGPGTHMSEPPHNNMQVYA
# Method summary: small molecules binding Notch2 protein – biochemical, small-molecule microarray, 635 nm fluorescence, stem cell growth factors, primary screen (AID 1073)
# Conditions: higher = more signal
Kind request: treat 0.8 as inclusive, so composite z-score at 0.8 or higher is Satisfied, anything lower is Not satisfied.

Ask: Is reported composite z-score greater than or equal to 0.8 here: CC(c1ccccc1)C(O)C1C=CC2C(=O)N(C)C(=O)C2N1Nc1ccccc1 (configuration not stated)
Reply: Satisfied

Ask: Does the reported composite z-score for CCCCCN1CC=CC23O[C@@H]4C=CCCOC(=O)C4[C@H]2C(=O)N(CCCCCCO)[C@@H]3C1=O (some centres not stated) fall at or above the 0.8 mark?
Reply: Not satisfied

Ask: Reported composite z-score reaches at least 0.8 for NCCCCCNC(=O)[C@H]1C[C@H]2C(=O)N3CCC[C@H]3C(=O)N2[C@H]1c1cccc(OCCO)c1 ?
Reply: Not satisfied

Ask: Could you verify whether the entry CC(=O)NCCCC[C@@H]1NC(=O)[C@@H]2C[C@H](C(=O)NCCCCCN)[C@H](c3ccc(O)cc3)N2C1=O shows composite z-score of no less than 0.8?
Reply: Not satisfied

Ask: Confirm if composite z-score reported for the molecule CCCC=C(CCC)[C@@H](NP(=O)(c1ccccc1)c1ccccc1)c1ccc(-c2ccccc2)cc1 is 0.8 or above.
Reply: Satisfied

Ask: Please indicate if the recorded composite z-score for CC(C)N1C(=O)C[C@@](C(=O)O)(c2ccc([N+](=O)[O-])cc2)[C@H]1c1ccc(CO)cc1 meets or exceeds 0.8.
Reply: Not satisfied

* * *

Give composite z-score for every item shown.
# Tested system: Torsin-1A-interacting protein 2 (Homo sapiens)
# Method summary: small molecules binding lysate-expressed LULL1 – cell lysate, human LULL1 lysate, 635/667 nm fluorescence, primary screen (AID 1092);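 note: probe is lysate of COS7 cells overexpressing human LULL1; score merges per-feature 667 nm fluorescence with signal-to-noise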
# Conditions: small-molecule microarray, hLULL1 lysate binding, 635 nm fluorescence; higher = more signal
Lab note: jot the number down without any unit.

Ask: Report composite z-score for COC(=O)[C@@]1(Cc2ccc(F)cc2)[C@H]2c3cc(C(=O)N(C)C)n(Cc4ccc(OC(F)(F)F)cc4)c3C[C@H]2CN1C(=O)c1ccccc1 tested on Torsin-1A-interacting protein 2 (Homo sapiens).
Reply: 0.841

Ask: Hi! What's the reported composite z-score for COc1cccc(C)c1NC(=O)O[C@H]1[C@H](OC(=O)Nc2ccc3c(c2)OCO3)[C@@H](OC(=O)Nc2ccc3c(c2)OCO3)[C@@H](OC)O[C@@H]1CO on Torsin-1A-interacting protein 2 (Homo sapiens)?
Reply: 3.58

Ask: What value of composite z-score on Torsin-1A-interacting protein 2 (Homo sapiens) does CCOC(=O)C=Cc1cccc(C)c1O have?
Reply: 0.236

Ask: Lookup: composite z-score / Torsin-1A-interacting protein 2 (Homo sapiens) / CCOc1cc(C(O)C2C=CC3C(=O)NC(=O)C3N2Nc2ccc(Cl)cc2Cl)ccc1O (stereo not drawn)
Reply: 0.0486

Ask: Notebook entry, Torsin-1A-interacting protein 2 (Homo sapiens) assay: composite z-score of CO[C@H]1O[C@H](CO)[C@@H](OC(=O)Nc2ccc3c(c2)OCO3)[C@H](OC(=O)Nc2ccc3c(c2)OCO3)[C@@H]1OC(=O)Nc1ccc2c(c1)OCO2 = ?
Reply: 3.44

Ask: Return composite z-score measured with Torsin-1A-interacting protein 2 (Homo sapiens) given this compound: CCOC(=O)C[C@H]1[C@H](OC(=O)Cc2ccc3c(c2)OCO3)[C@@H](NC(=O)C2CCCCC2)c2cc(OCCCO)ccc2N1C(=O)c1ccccc1
Reply: 0.618

Ask: Value wanted: composite z-score (Torsin-1A-interacting protein 2 (Homo sapiens)) of entry COCCOC(=O)N1C(=O)[C@@]2(c3cc(C#CC4(O)CCCCCC4)ccc31)[C@H](C(=O)N1CCc3cc(OC)c(OC)cc3C1)[C@H]1C(=O)O[C@H](c3ccccc3)[C@H](c3ccccc3)N1[C@@H]2c1ccc(OCCO)cc1
Reply: 2.03

Ask: Any idea what composite z-score came out for C=CCNC(=O)[C@@H]1[C@H]2C(=O)O[C@H](c3ccccc3)[C@H](c3ccccc3)N2[C@H](c2ccccc2OCCO)[C@@]12C(=O)Nc1ccc(C#CCCO)cc12 on Torsin-1A-interacting protein 2 (Homo sapiens)?
Reply: 2.3

Ask: Which composite z-score is reported with Torsin-1A-interacting protein 2 (Homo sapiens) for this entry: CCCCCCc1nc(Cc2cc(OC)c(OC)c(OC)c2)cc2c1[Si](C(C)C)(C(C)C)OC2 ?
Reply: -0.233

Ask: Write down the reported composite z-score of COC(=O)[C@]1(CCS(=O)(=O)c2ccccc2)N=C(c2ccc(OCCCO)cc2)O[C@@H]1c1ccccc1N=[N+]=[N-] , test system: Torsin-1A-interacting protein 2 (Homo sapiens).
Reply: 3.23

Ask: Report composite z-score for Cc1ccc(S[C@]2(C(=O)NCC(F)(F)F)CC(=O)N(Cc3cc(C(F)(F)F)cc(C(F)(F)F)c3)[C@@H]2c2ccc(CO)cc2I)cc1 tested on Torsin-1A-interacting protein 2 (Homo sapiens).
Reply: -0.0923

Ask: Can you look up composite z-score on Torsin-1A-interacting protein 2 (Homo sapiens) for COc1cc(OC)c(C(O)C2C=CC3C(=O)N(Cc4ccccc4)C(=O)C3N2n2cnnc2)cc1Br (stereo not drawn) ?
Reply: 2.89

Ask: Reported composite z-score for Torsin-1A-interacting protein 2 (Homo sapiens), given COC(=O)c1c(CC[C@@H](CO)NC(=O)N[C@@H](C)Cn2cc(-c3ccccn3)nn2)oc(C(C)=O)c1C(=O)OC ?
Reply: 1.42

Ask: API: value(readout=composite z-score, system=Torsin-1A-interacting protein 2 (Homo sapiens)) for record CN1C(=O)C2C=CC(C(O)c3cccn3C)N(Nc3ccc([N+](=O)[O-])cc3[N+](=O)[O-])C2C1=O (stereo not drawn)
Reply: 0.711

Ask: Request: composite z-score, test system Torsin-1A-interacting protein 2 (Homo sapiens), entry COc1ccc([Si](C)(C)[C@H]2[C@H](CC(=O)N(CCO)Cc3ccccc3)O[C@@]3(C(=O)N(C)c4c(Br)cc(C)cc43)[C@@H]2C)cc1
Reply: 1.25

Ask: Param readout= composite z-score; system= Torsin-1A-interacting protein 2 (Homo sapiens); entry= COc1ccc([Si](C)(C)[C@@H]2[C@@H](CC(=O)N3CCC[C@H]3CO)O[C@]3(C(=O)N(Cc4cccc(N5C(=O)COc6ccccc65)c4)c4ccccc43)[C@H]2C)cc1 ; returns value.
Reply: 1.77

Ask: Item: COCC(=C=CC[C@H](O)c1ccccc1OCCO)C[C@H](O)c1ccccn1 Test system: Torsin-1A-interacting protein 2 (Homo sapiens) Read-out: composite z-score Value: ?
Reply: 3.35

Ask: Give Torsin-1A-interacting protein 2 (Homo sapiens) composite z-score for CN(C)CCCCCCNC(=O)[C@@H]1C[C@@H]2C(=O)N3CCC[C@H]3C(=O)N2[C@@H]1c1cccc(OCCO)c1
Reply: 1.66

* * *

Please provide measured composite z-score for the entries that follow.
# Tested system: Streptavidin (Streptomyces avidinii) (UniProt P22629)
# Sequence (P22629 whole entry, looked up): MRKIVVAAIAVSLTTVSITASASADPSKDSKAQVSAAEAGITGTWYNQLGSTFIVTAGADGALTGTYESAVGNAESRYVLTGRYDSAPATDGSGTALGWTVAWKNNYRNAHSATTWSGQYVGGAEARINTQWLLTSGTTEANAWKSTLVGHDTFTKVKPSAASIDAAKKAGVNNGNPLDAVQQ
# Method summary: compounds binding control protein streptavidin – biophysical, small-molecule microarray, 635/667 nm fluorescence, artefact control for SMM compound annotation, primary screen (AID 1147);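 note: signal reflects streptavidin binding to arrayed compounds as a control protein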
# Conditions: higher = more signal
Give the value as a plain number.

Ask: Report composite z-score for CCCC=C(CCC)[C@@H](NC(=O)C(C)(C)C)c1ccc(C(=O)OC)cc1 please.
Reply: 1.69

Ask: So what's the measured composite z-score for this one? CS(=O)(=O)CCOC(=O)C1=CC(c2ccc(CO)cc2)=CC(C2CC2)N(Cc2sc3ccccc3c2Cl)C=C1C(=O)OCCS(C)(=O)=O (stereo not given)
Reply: 1.95

Ask: Field request: composite z-score | item: COc1ccc([Si](C)(C)[C@@H]2[C@@H](CC(=O)N3Cc4ccccc4C[C@H]3CO)O[C@]3(C(=O)N(Cc4ccc(N5C(=O)c6cccc7cccc5c67)cc4)c4ccccc43)[C@H]2C)cc1
Reply: 0.29

Ask: Quick one: composite z-score for CCCCN1CC=CC23O[C@@H]4/C=C\CCCOC(=O)C4[C@H]2C(=O)N(CCO)[C@@H]3C1=O (stereo not given in full) ?
Reply: -1.6

Ask: State the recorded composite z-score for this entry: COCCCNC(=O)[C@@]1(CCC(=O)OC(C)(C)C)N=C(c2ccc(OCCCO)cc2)O[C@H]1c1ccccc1N=[N+]=[N-]
Reply: 2.07

Ask: Could you share which composite z-score value was measured for CCOC(=O)C1=CC[C@@H](c2ccccc2)N(S(=O)(=O)c2ccc(C)cc2)[C@H]1c1ccccc1 ?
Reply: 1.46

Ask: # composite z-score lookup, item COCC(=C=CC[C@H](O)c1ccc(OCCO)cc1)CCO
Reply: -0.407

Ask: Which value of composite z-score has been reported for CC(=O)NCCCC[C@@H]1NC(=O)[C@@H]2C[C@H](C(=O)NCCCCCN)[C@H](c3ccc(O)cc3)N2C1=O in the records?
Reply: 0.977

Ask: Give its composite z-score value. Item: O=C1C2C=CC(C(O)C3CC=CCC3)N(Nc3ccccc3)C2C(=O)N1c1ccccc1 (stereo not given)
Reply: 0.801

Ask: Fill blank: measured composite z-score of the compound COC(=O)C1=CC(CCCO)=CC(c2ccc(CN3CCCC3)cc2)N(Cc2cccc(OC(F)(F)F)c2)C=C1C(=O)OC (stereo not given) is ____.
Reply: 0.644

Hey, just so you know, these numbers are from PubChem BioAssay.
